- measured_target: Yer184c (UniProt P39961)
- Sequence: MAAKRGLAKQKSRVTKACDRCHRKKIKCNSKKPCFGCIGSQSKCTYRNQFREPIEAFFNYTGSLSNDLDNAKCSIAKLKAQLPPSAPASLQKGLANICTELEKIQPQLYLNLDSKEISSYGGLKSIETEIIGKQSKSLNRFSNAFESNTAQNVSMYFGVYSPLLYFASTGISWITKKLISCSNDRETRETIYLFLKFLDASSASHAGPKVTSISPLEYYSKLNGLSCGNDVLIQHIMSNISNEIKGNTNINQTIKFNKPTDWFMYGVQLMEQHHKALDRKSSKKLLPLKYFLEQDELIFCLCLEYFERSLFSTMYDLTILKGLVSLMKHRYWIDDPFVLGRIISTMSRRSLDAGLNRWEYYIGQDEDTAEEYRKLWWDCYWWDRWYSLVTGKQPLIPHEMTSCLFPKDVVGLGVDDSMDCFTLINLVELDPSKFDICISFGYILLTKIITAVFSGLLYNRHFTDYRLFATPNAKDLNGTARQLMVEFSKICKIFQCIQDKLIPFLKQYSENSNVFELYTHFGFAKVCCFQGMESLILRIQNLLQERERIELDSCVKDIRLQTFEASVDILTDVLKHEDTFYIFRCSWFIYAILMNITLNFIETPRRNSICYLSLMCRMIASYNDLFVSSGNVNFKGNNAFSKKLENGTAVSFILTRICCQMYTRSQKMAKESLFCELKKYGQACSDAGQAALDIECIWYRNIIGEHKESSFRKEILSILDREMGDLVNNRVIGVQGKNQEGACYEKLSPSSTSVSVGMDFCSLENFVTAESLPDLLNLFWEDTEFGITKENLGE
- protocol_summary: PBM E-score (8-mer binding enrichment) (E-score (-0.5 to 0.5)); higher = stronger / more preferred TF binding
- conditions_used: protein concentration: 100 nM; construct: GST-full length
Over roughly 33,000 sequences, “E-score (-0.5 to 0.5)” has its median near -0.016; the highest 2% begin near 0.3. The sample as a whole holds a higher share of the highest values than the screen did.
Property: PBM E-score; scope: individual sequences
Enter the number alone.

Entry GCAATAGA has what PBM E-score?
-0.0314

Entry to check: AGAGAACG
0.0412

Entry to check: CAATCCTC
-0.113

Entry to check: ATCCGGTC
0.214

Entry to check: ATACGGCC
0.153

Entry to check: AATTCCGG
0.387

Entry to check: AGGAACCG
0.179

Entry to check: CATTCCGC
-0.0761

Entry to check: CCGAATCC
0.322

This collection of values is drawn from the supplement of paper PMC3334620.
